target: recombinant human ALK5 (TGF-βR1) protein (Homo sapiens); experiment: Biochemical ALK5 (TGF-βR1) assay to measure pKi (LANCE Ultra ULight kinase assay); details: apparent pKi, converted from pIC50 by Cheng-Prusoff
pKi: −log10 of the molar value.
So I've got a bunch of compounds here, and I need their pKi values.

Entry "Cc1cccc(-c2nccc(Nc3ccnc(Nc4nc(C5=CCNC5)cs4)n3)n2)n1" ; pKi = 9.50 to 10.40

Recorded pKi (compound "CCOC(=O)Cn1cc(-c2ccc(Nc3nccc(Nc4ccnc(-c5cccc(C)n5)n4)n3)cc2)cn1" ): 8.50 to 9.40

Kindly note the recorded pKi for Cc1cccc(-c2nccc(Nc3ccnc(Nc4ccc(N5CCNCC5C)cc4)n3)n2)n1 (racemic) , which is 9.50 to 10.40

For reference, reported pKi for "Cc1cccc(-c2nccc(Nc3ccnc(Nc4csc(C(=O)OC[C@@H]5CCC[C@@H](N)C5)c4)n3)n2)n1" stands at 9.50 to 10.40

get_value(item= "Cc1cccc(-c2nccc(Nc3ccnc(Nc4ccc(CC5CNC5)cc4)n3)n2)n1" , readout=pKi) returns 9.50 to 10.40

Input "Cc1cccc(-c2nccc(Nc3ccnc(Nc4csc(C(=O)NCC5CNC5)c4)n3)n2)n1" . Output pKi: ≥ 10.50

response.value for Cc1cccc(-c2nccc(Nc3ccnc(Nc4ccc(CN5CCC(C(=O)O[C@@H]6CCN(C)C6)C5)cc4)n3)n2)n1 (stereo partly shown) (field: pKi) = 9.50 to 10.40

---

tested on: TGF-β-stimulated SMAD3 phosphorylation in BEAS-2B cells; assay: Cellular ALK5 potency assay, inhibition of TGF-β stimulated pSMAD3 formation in BEAS-2B cells; assay type: cell-based; conditions: Homo sapiens, pSMAD3, TGF-β 10 ng/mL, read-out: BEAS2B pIC50 (converted)
reported-endpoint: IC50

For this compound ( "Cc1cccc(-c2nccc(Nc3ccnc(Nc4cnn(CCN5CCOCC5)c4)n3)n2)n1" ), measured IC50 is 0.0251 to 0.158 µM

Input "Cc1cccc(-c2nccc(Nc3ccnc(Nc4ccc(C(=O)OC5CNC5)cn4)n3)n2)n1" . Output IC50: 0.0251 to 0.158 µM

// field: IC50; key: "Cc1cccc(-c2nccc(Nc3ccnc(Nc4ccc(NC(=O)C5CNC5)cc4)n3)n2)n1" ; value = ≤ 0.02 µM

The compound "COC(=O)c1cc(Nc2ccnc(Nc3ccc(N4CCN(C)CC4)cc3)n2)nc(-c2cccc(C)n2)n1" showed IC50 equal to 0.2 to 1.26 µM

Per the records, this compound ( CC[C@H](C)OC(=O)C1CN(c2ccc(Nc3nccc(Nc4ccnc(-c5cccc(C)n5)n4)n3)cc2)CCN1 (some centres unmarked) ) has IC50 equal to 0.0251 to 0.158 µM

IC50 recorded for this compound, "Cc1cccc(-c2nccc(Nc3ccnc(Nc4ccc(F)c(CN5C[C@@H](C)N[C@@H](C)C5)c4)n3)n2)n1" , is 0.0251 to 0.158 µM

Quick note, IC50 for "Cc1cccc(-c2nccc(Nc3ccnc(Nc4ccc(C)c(N)c4)n3)n2)n1" landed at ≤ 0.02 µM

Reported IC50 of "COc1cc(Nc2nccc(Nc3ccnc(-c4cccc(C)n4)n3)n2)ccc1NC(=O)C1CCNCC1" : 0.0251 to 0.158 µM

---

target: recombinant human ALK5 (TGF-βR1) protein (Homo sapiens, UniProt P36897); construct: purchased Life Technologies PR9075A; assay: Biochemical ALK5 (TGF-βR1) assay to measure pKi (LANCE Ultra ULight kinase assay); conditions: apparent pKi, converted from pIC50 by Cheng-Prusoff
Sequence (P36897 34-503): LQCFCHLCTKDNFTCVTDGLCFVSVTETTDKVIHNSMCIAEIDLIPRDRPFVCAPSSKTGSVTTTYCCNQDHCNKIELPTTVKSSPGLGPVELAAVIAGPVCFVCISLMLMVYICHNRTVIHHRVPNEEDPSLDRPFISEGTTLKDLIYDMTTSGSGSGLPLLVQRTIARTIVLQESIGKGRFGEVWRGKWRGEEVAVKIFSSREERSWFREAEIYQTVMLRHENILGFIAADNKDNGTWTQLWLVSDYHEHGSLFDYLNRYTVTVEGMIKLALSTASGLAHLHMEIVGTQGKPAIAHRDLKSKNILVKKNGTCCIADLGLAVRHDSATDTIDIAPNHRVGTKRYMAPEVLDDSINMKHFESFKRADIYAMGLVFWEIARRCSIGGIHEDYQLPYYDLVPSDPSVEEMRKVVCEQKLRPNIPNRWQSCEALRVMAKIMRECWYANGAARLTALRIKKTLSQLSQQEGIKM
reported-endpoint: Ki

For this compound ( Cc1cccc(-c2nccc(Nc3ccnc(Nc4ccc(NC(=O)C5CCNC5)cc4)n3)n2)n1 (centres unmarked) [Compound 78] ), measured Ki is 39.8 to 316 pM

Entry Cc1cccc(-c2nccc(Nc3ccnc(Nc4ccc(Br)cc4)n3)n2)n1 [Compound 234] — recorded Ki = 3980 to 31600 pM

Lab note: measured Ki of Cc1cccc(-c2nccc(Nc3ccnc(Nc4ccc(NS(=O)(=O)C5CCNC5)cc4)n3)n2)n1 (centres unmarked) [Compound 413] was 398 to 3160 pM

Sure, the documented Ki for Cc1cccc(-c2nccc(Nc3ccnc(Nc4ccc(C(=O)N5CCNCC5)s4)n3)n2)n1 [Compound 115] is 39.8 to 316 pM

In plain terms, COC(=O)c1ccc(Nc2nccc(Nc3nc(-c4cccc(C)n4)nn4cccc34)n2)cn1 [Compound 1024] has a documented Ki of 39.8 to 316 pM

Data point: Cc1cccc(-c2nccc(Nc3ccnc(Nc4ccc(C5=CCC(N)CC5)cc4)n3)n2)n1 (centres unmarked) [Compound 151] ; Ki = 39.8 to 316 pM

Entry Cc1cccc(-c2nccc(Nc3ccnc(Nc4nc(C(=O)N5CCN[C@@H](CO)C5)cs4)n3)n2)n1 [Compound 349] ; Ki = 398 to 3160 pM

// recorded Ki for COC(=O)C1CNCCN1c1ccc(Nc2nccc(Nc3ccnc(-c4cccc(C)n4)n3)n2)cc1 (centres unmarked) [Compound 204] : 39.8 to 316 pM
